Data provenance is the METLIN SMRT retention time set (Domingo-Almenara et al. 2019).

Assay: gradient 5% acetonitrile 3 min, to 50% in 2 min, to 85% in 15 min, held 3 min, 100 µL/min
Details: column: Zorbax Extend-C18 2.1 x 50 mm; eluents: water / acetonitrile, 0.1% formic acid
The label is 1 for RP-LC retention time below 800 s and -1 for RP-LC retention time equal to or exceeding 800 s.

| Molecule | Label class |
| --- | --- |
| CCn1nccc1C(=O)Nc1nnc(-c2ccsc2)o1 | 1 |

Okay, next one:
QUERY: State whether 800 s exceeds RP-LC retention time recorded for "COc1ccc(-c2nc(C)cc(C)c2CNC(=O)C2CCC2)cc1" .
RESULT: 1

* * *

Record form. Attribute: RP-LC retention time. Fill in for each entry.
Test: gradient 5% acetonitrile 3 min, to 50% in 2 min, to 85% in 15 min, held 3 min, 100 µL/min
Details: column: Zorbax Extend-C18 2.1 x 50 mm; eluents: water / acetonitrile, 0.1% formic acid
Numbers only, in s.

Worked set:
| Compound | Readout name | Unit descriptor | Value |
| --- | --- | --- | --- |
| O=S(=O)(c1cccn2cnnc12)N(Cc1ccc(F)cc1)c1ccc(F)c(F)c1 | RP-LC retention time | s | 887 |
| CCOc1ccc(NS(=O)(=O)c2cc(C(=O)N3CCN(c4ccc(F)cc4)CC3)n[nH]2)cc1 | RP-LC retention time | s | 876 |
| Clc1ccc(-c2noc(CN3CCN(c4ccccn4)CC3)n2)cc1 | RP-LC retention time | s | 679 |
| N#Cc1cccc(Cn2cc(S(=O)(=O)N3CCCC3)ccc2=O)c1 | RP-LC retention time | s | 764 |
| O=C(Nc1cccc(-c2ccc(N3CCOCC3)nn2)c1)Nc1ccc(F)cc1F | RP-LC retention time | s | 723 |

List the reported RP-LC retention time of each compound below.
1. COc1ccc(NC(=O)C2CCN(c3cnc4nc(C)c(C)nc4c3)CC2)cc1F
2. CCN(CC)CCNC(=O)c1c(-c2ccccc2)c(-c2ccccc2)nn(CC)c1=O
3. COc1ccc(OC)c(S(=O)(=O)N2CCC3(C2)C(=O)N(C)c2ccccc23)c1 (centres undefined)
4. COc1cc(C(=O)Nc2nc(-c3ccc4c(c3)N(C)C(=O)CO4)c(C)s2)cc(OC)c1OC

RESULT:
1: 718; 2: 666; 3: 853; 4: 964

* * *

Test: gradient 5% acetonitrile 3 min, to 50% in 2 min, to 85% in 15 min, held 3 min, 100 µL/min
Details: column: Zorbax Extend-C18 2.1 x 50 mm; eluents: water / acetonitrile, 0.1% formic acid
Readout name: RP-LC retention time
In your response, the unit should come after the numeric value.

Worked set:
| Mol | Readout name | Value |
| --- | --- | --- |
| O=C(O)c1ccc(Nc2nc(-c3ccc(Cl)cc3Cl)nc3ccccc23)cc1 | RP-LC retention time | 828 s |
| O=C(Nc1cccc2ccccc12)c1ccc(F)cc1 | RP-LC retention time | 812 s |
| CCn1cc(Br)c(C(=O)Nc2ccc(F)c(Cl)c2)n1 | RP-LC retention time | 1020 s |
| Cc1nc(-c2ccc(-c3noc(-c4ccnn4C)n3)cc2)cs1 | RP-LC retention time | 1060 s |

Consider the record given below.
QUERY: # return recorded RP-LC retention time for entry "Cc1cc2c(c(=O)n(-c3ccccc3)c(=O)n2CC(=O)Nc2ccc(C(C)C)cc2)n1C"
RESULT: 975 s
